Assay: Cell accumulation and total recovery of coumarins in the bidirectional transport experiment
Applied conditions: dog, MDCK-pHaMDR cell monolayer, pH 7.4, TR (Total recovery) BL→AP, BL→AP; 50 µM; 90 min; percent of initial amount; n = 6
For each entry below, report its recovery at 90 min, 50 µM value.

Ask: Given the compound C/C=C(/C)C(=O)OC(C)(C)[C@@H]1Cc2c(ccc3ccc(=O)oc23)O1 , what is its reported recovery at 90 min, 50 µM?
Result: 64.1%

Ask: Consider the compound COc1cc2ccc(=O)oc2cc1O and give its measured recovery at 90 min, 50 µM.
Result: 92.2%

Ask: Quick one: recovery at 90 min, 50 µM for CC(C)=CCOc1c2ccoc2cc2oc(=O)ccc12 ?
Result: 86.6%

Ask: Sample O=c1ccc2cc3ccoc3cc2o1 — what was its recovery at 90 min, 50 µM?
Result: 94.7%

Ask: Find the recorded recovery at 90 min, 50 µM belonging to COc1c2ccoc2cc2oc(=O)ccc12 and report it.
Result: 107%

Ask: Can you share its recovery at 90 min, 50 µM? I mean this compound: O=c1ccc2ccc(O)cc2o1
Result: 96.7%

Ask: Name the recorded recovery at 90 min, 50 µM for COc1ccc2ccc(=O)oc2c1CC=C(C)C .
Result: 95.6%

###

Assay: in vitro
Applied conditions: dog, MDCK-MDR1, pH 7.4
Strictly below 30 ×10⁻⁶ cm/s in Papp B→A at 90 min, 50 µM: label 1. Otherwise: label 0.

Ask: Decide: Papp B→A at 90 min, 50 µM of COc1ccc2ccc(=O)oc2c1CC=C(C)C strictly below 30 ×10⁻⁶ cm/s?
Result: label 1

Ask: Lab note: confirm whether the reported Papp B→A at 90 min, 50 µM for this compound is below 30 ×10⁻⁶ cm/s, equality not counting. compound: CC(C)=CCOc1c2ccoc2cc2oc(=O)ccc12
Result: label 1

Ask: Record O=c1ccc2cc3ccoc3cc2o1 : is its Papp B→A at 90 min, 50 µM strictly below 30 ×10⁻⁶ cm/s?
Result: label 1

Ask: Please let me know if COc1cc2ccc(=O)oc2cc1O shows Papp B→A at 90 min, 50 µM below 30 ×10⁻⁶ cm/s.
Result: label 1

Ask: API: query returns whether the compound falls strictly under 30 ×10⁻⁶ cm/s in Papp B→A at 90 min, 50 µM. Query: O=c1ccc2ccc(O)cc2o1
Result: label 0

Ask: Papp B→A at 90 min, 50 µM strictly < 30 ×10⁻⁶ cm/s for this compound? COc1c2ccoc2cc2oc(=O)ccc12
Result: label 0

Ask: Say whether its Papp B→A at 90 min, 50 µM is strictly beneath 30 ×10⁻⁶ cm/s. Entry: C/C=C(/C)C(=O)OC(C)(C)[C@@H]1Cc2c(ccc3ccc(=O)oc23)O1
Result: label 1

###

System: P-gp
Assay: in vitro
Applied conditions: dog, not told, pH 7.4
Endpoint: Papp A→B at 90 min, 10 µM (×10⁻⁶ cm/s)
All answers are understood in ×10⁻⁶ cm/s, so give the number only.

Ask: Please give the measured Papp A→B at 90 min, 10 µM for this compound: COC(=O)c1ccccc1-c1c2ccc(=N)cc-2oc2cc(N)ccc12
Result: 1.18

###

Exercise: for every item that follows, state its recorded Papp A→B at 90 min.
Assay: in vitro
Applied conditions: dog, MDCK-MDR1, pH 7.4
Enter your answer as a number in ×10⁻⁶ cm/s; do not include the unit.

Ask: What does the record list as Papp A→B at 90 min for O=c1ccc2ccc(O)cc2o1 ?
Result: 35.9

Ask: Return reported Papp A→B at 90 min; argument: O=c1ccc2cc3ccoc3cc2o1
Result: 27.3

Ask: Looking for the measured Papp A→B at 90 min of C/C=C(/C)C(=O)OC(C)(C)[C@@H]1Cc2c(ccc3ccc(=O)oc23)O1 , can you help?
Result: 10.4

Ask: # get_value(readout='Papp A→B at 90 min', item= COc1cc2ccc(=O)oc2cc1O )
Result: 37.1

Ask: So what's the measured Papp A→B at 90 min for this one? Cn1c(=O)c2c(ncn2C)n(C)c1=O [caffeine, reference compound]
Result: 43.6

Ask: What Papp A→B at 90 min value was documented for this molecule, COc1c2ccoc2cc2oc(=O)ccc12 ?
Result: 43.6

Ask: Quick one: Papp A→B at 90 min for CC(C)=CCOc1c2ccoc2cc2oc(=O)ccc12 ?
Result: 7.29

Ask: Papp A→B at 90 min lookup needed for COc1ccc2ccc(=O)oc2c1CC=C(C)C , thanks.
Result: 23.8

The reported measurements were obtained from paper PMC6332004.
